Data origin, for the record: patent US11994512B2

# Test system: intracellular proteome of ENR+CD and ENR organoids
# method: LC-MS/MS TMT proteomics of ENR+CD versus ENR organoids
# Assay type: cell-based, C57BL/6 mice
# condition.details: up = enriched in ENR+CD, down = enriched in ENR; FDR<0.05 and log fold change cut-off

# molecule, change
records = [
    ("Q91Y74 (protein, UniProt Q91Y74 1-333, looked up, full-length) MTSKSHWKLLALALVLVVVMVWYSISREDRYIEFFYFPISEKKEPCFQGEAERQASKIFGNRSREQPIFLQLKDYFWVKTPSTYELPFGTKGSEDLLLRVLAITSYSIPESIKSLECRRCVVVGNGHRLRNSSLGGVINKYDVVIRLNNAPVAGYEGDVGSKTTIRLFYPESAHFDPKIENNPDTLLVLVAFKAMDFHWIETILSDKKRVRKGFWKQPPLIWDVNPKQVRILNPFFMEIAADKLLSLPIQQPRKIKQKPTTGLLAITLALHLCDLVHIAGFGYPDASNKKQTIHYYEQITLKSMAGSGHNVSQEAIAIKRMLEMGAVKNLTYF", "down"),
    ("Q9R022 (protein, UniProt Q9R022 1-198, looked up, full-length) MDAILNYRPEGSEDYYALLGCDELSSVEQILAEFKIRALECHPDKHPENSKAVETFQKLQKAKEILCNAESRARYDHWRRSQMSMPFEQWEALADSVKTSMHWAVRSKKDLMLEGSGQTFTSSVPNKERSEQRETKKGDPDSNPEKMKQKEPKFPEEGISPQNPDSPGLSDLNCGHLRFRWSGDAPSELLRKFRNYEI", "up"),
]
